tested on: B6C3F1 mice, ip Sarcoma M5076, median survival T/C; assay: NCI In Vivo Anticancer Drug Screen. Data for tumor model Sarcoma M5076 (intraperitoneal) in B6C3F1 mice; conditions: endpoint: median survival time; dose: 400.0 mg/kg/injection; schedule: Q04DX004 (ip); vehicle: suspension in saline
Toxic doses and inconclusive results are not listed. Rule for the calls: active = survival T/C of 150% or more; inactive = T/C below 125% in these data.
Outcome codes: 1 (active), 0 (inactive)

compound: CC(C)(C)CCC(Br)CBr (stereo not drawn)
targetOrSystem: B6C3F1 mice, ip Sarcoma M5076, median survival T/C
assignedClass: 0
//
compound: C1OC1CO[C@@H]1CO[C@H]2[C@@H]1OC[C@H]2OCC1CO1 (stereo partly drawn)
targetOrSystem: B6C3F1 mice, ip Sarcoma M5076, median survival T/C
assignedClass: 1
//
compound: O=S(O)Cc1ccccc1CSSSCc1ccccc1CS(=O)O
targetOrSystem: B6C3F1 mice, ip Sarcoma M5076, median survival T/C
assignedClass: 0

----------
test system: B6C3F1 mice, ip Sarcoma M5076, median survival T/C; assay: NCI In Vivo Anticancer Drug Screen. Data for tumor model Sarcoma M5076 (intraperitoneal) in B6C3F1 mice; settings: endpoint: median survival time; dose: 50.0 mg/kg/injection; schedule: Q04DX004 (ip); vehicle: saline with Tween-80
Inconclusive results and toxic doses are left out. Rule for the calls: active = survival T/C of 150% or more; inactive = T/C below 125% in these data.
Outcome codes: true (active), false (inactive)

compound: CN(C)CCNc1ccc(CO)c2sc3ccc(O)cc3c(=O)c12
assignedClass: true
--
compound: NC(C(=O)O)C1=CCCC1 (configuration not stated)
assignedClass: false
--
compound: N=C1C=CC2C(=Nc3ccccc3[N+]2=O)N1CCO (configuration not stated)
assignedClass: false
--
compound: CCC(CC)C(=O)NCC(=O)NO
assignedClass: false
--
compound: CC(C)(C)c1noc2c1C(=O)c1ccccc1-2
assignedClass: false
--
compound: CCOC(=O)c1cc(-c2ccccc2)c(OC)c(=O)nc1-c1ccccc1
assignedClass: false
--
compound: COCCCn1c(C(Cl)(Cl)Cl)nn2c(=O)c3ccccc3nc2c1=O
assignedClass: false

----------
tested on: B6C3F1 mice, ip Sarcoma M5076, median survival T/C; test: NCI In Vivo Anticancer Drug Screen. Data for tumor model Sarcoma M5076 (intraperitoneal) in B6C3F1 mice; settings: endpoint: median survival time; dose: 100.0 mg/kg/injection; schedule: Q04DX004 (ip); vehicle: saline with Tween-80; higher = longer survival
Toxic doses and inconclusive results are not listed.
assayReadout: T/C

cpdSmiles: CCNC(=O)OCc1cnc(C)c(OC(=O)NCC)c1COC(=O)NCC
assayReadout: T/C
reported: 90 % of control
--
cpdSmiles: CCOC(=O)Nc1cc2c(c(N)n1)N=C(c1ccccc1)CO2
assayReadout: T/C
reported: 107 % of control
--
cpdSmiles: Clc1nc2cc3c(cc2n2cccc12)oc1ccccc13
assayReadout: T/C
reported: 94 % of control
--
cpdSmiles: Cc1cc(=O)n(Cc2ccco2)c(=S)[nH]1
assayReadout: T/C
reported: 105 % of control
--
cpdSmiles: Nc1ccc2ccc(NS(=O)(=O)N3CCCCC3)cc2c1
assayReadout: T/C
reported: 107 % of control
--
cpdSmiles: COc1ccc2c(c1)n([O-])c1ccccc1[n+]2=O
assayReadout: T/C
reported: 121 % of control
--
cpdSmiles: COc1cc(/C=C/[N+](=O)[O-])cc(Br)c1OC
assayReadout: T/C
reported: 107 % of control
--
cpdSmiles: CCC(CC)C(=O)NCC(=O)NO
assayReadout: T/C
reported: 93 % of control
--
cpdSmiles: O=c1[nH]c2cc3c(cc2n2cccc12)oc1ccccc13
assayReadout: T/C
reported: 98 % of control
--
cpdSmiles: O=C(N/N=C/c1ccco1)c1ccc(OCc2nc3ccccc3[nH]2)cc1
assayReadout: T/C
reported: 96 % of control
--
cpdSmiles: Clc1ccccc1C(Nc1cnccn1)Nc1cnccn1
assayReadout: T/C
reported: 105 % of control
